Data credit: patent US11878975B2

Target: human TLR8 (Homo sapiens)
Construct: host or cells: HEK-Blue cells
Sequence (Q9NR97 27-1041): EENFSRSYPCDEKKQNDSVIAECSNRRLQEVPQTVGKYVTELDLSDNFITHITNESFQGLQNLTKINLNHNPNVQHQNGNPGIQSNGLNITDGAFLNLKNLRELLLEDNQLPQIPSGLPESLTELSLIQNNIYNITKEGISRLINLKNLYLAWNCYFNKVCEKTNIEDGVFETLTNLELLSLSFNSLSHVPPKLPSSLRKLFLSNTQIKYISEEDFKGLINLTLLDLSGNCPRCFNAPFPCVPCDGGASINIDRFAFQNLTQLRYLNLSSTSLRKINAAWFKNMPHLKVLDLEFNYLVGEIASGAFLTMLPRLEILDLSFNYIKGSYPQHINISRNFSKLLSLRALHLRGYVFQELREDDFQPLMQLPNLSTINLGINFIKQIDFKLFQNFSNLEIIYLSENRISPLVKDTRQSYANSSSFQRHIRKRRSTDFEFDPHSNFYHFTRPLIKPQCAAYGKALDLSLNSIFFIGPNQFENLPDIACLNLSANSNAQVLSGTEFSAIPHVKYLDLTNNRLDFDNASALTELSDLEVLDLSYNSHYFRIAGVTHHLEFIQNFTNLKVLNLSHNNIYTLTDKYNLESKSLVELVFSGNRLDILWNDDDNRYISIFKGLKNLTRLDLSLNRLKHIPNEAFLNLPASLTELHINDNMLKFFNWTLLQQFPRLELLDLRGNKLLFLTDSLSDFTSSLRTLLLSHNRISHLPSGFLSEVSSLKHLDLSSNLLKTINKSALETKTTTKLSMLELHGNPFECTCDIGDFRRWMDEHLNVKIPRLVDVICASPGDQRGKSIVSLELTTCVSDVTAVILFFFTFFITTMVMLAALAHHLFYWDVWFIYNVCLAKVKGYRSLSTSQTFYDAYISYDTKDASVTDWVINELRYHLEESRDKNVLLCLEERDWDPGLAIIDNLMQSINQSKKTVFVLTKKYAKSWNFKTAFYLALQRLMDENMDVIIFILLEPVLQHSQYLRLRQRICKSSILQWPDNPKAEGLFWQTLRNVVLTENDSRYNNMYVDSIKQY
Experiment: TLR8 inhibition reporter assay (HEK-Blue cells, SEAP reporter, R848 stimulation)
Assay type: cell-based
Details: HEK-Blue cells overexpressing human TLR8, SEAP reporter, R848 15.9 μM
RESULT_TYPE: IC50 (nM)
Numbers only, in nM.

Completed entries (count: 3):
1. COc1cc(-c2[nH]c3ccc(C4CN(C(C)C)C4)cc3c2C(C)C)cn2ncnc12 :: 2.1
2. COc1cc(-c2[nH]c3ccc(C4CCCN(C)C4)cc3c2C(C)C)cn2ncnc12 (stereo not shown) [Example 238] :: 0.75
3. Cc1c(-c2[nH]c3ccc(CC4CNC4)cc3c2C(C)C)cn(C)c(=O)c1C :: 36

Kindly consider the entry below.
Output reported IC50 of the molecule Cc1c(-c2[nH]c3ccc(C4CCC(N(C)C)CC4)cc3c2C(C)C)cn(C)c(=O)c1C (stereo not shown) [Example 475] on human TLR8 (Homo sapiens).
28

====

Give pIC50 for every item shown.
Target: human TLR9 (Homo sapiens, UniProt Q9NR96)
Sequence (Q9NR96 26-1032): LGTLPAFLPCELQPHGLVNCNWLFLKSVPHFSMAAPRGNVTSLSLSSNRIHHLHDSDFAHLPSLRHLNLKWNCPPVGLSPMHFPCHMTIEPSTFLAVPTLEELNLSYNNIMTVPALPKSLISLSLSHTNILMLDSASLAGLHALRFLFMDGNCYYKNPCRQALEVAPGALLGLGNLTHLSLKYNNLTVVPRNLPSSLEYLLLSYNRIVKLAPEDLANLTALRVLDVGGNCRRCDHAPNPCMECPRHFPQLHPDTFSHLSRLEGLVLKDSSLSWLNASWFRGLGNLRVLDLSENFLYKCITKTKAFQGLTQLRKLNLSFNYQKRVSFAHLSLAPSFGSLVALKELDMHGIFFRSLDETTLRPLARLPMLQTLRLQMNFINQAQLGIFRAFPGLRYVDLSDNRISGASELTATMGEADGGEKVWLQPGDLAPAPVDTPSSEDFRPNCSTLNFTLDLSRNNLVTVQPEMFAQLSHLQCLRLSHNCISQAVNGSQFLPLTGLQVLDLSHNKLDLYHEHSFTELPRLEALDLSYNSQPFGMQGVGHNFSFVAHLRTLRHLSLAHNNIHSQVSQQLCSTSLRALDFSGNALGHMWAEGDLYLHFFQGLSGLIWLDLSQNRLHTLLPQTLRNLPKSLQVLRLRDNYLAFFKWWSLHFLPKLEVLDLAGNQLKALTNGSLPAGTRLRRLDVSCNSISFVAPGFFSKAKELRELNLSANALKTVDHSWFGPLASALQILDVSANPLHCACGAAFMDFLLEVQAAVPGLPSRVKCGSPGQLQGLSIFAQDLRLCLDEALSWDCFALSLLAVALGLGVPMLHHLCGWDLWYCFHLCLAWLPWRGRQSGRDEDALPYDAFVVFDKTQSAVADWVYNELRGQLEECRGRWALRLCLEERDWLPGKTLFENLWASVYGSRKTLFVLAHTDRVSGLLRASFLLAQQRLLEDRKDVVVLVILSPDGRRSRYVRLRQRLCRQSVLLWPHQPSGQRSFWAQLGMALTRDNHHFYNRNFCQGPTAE
Assay: TLR9 inhibition reporter assay (HEK-Blue cells, SEAP reporter, ODN2006 stimulation)
Conditions: HEK-Blue cells overexpressing human TLR9, SEAP reporter, ODN2006 5 nM
pIC50: −log10 of the molar value.

1. Cc1cc(-c2[nH]c3ccc(C4CN(CC(=O)N(C)C)CCO4)cc3c2C(C)C)cn2ncnc12 (single isomer, unassigned) [Example 316] :: < 4.30
2. COc1ccc(CNC2CCC(c3ccc4[nH]c(-c5cc(C)nc(C)c5)c(C(C)C)c4c3)CC2)cc1 (single isomer, unassigned) [Example 50] :: 6.21

For the next question, use this molecule.
// Input: Cc1cc(-c2[nH]c3ccc(C4CCC(N5CCC(F)(F)CC5)CC4)cc3c2C(C)C)cn(C)c1=O (stereo not drawn) [Example 466] . Output its pIC50 only.
< 4.30
